test system: RXF 393 renal; experiment: NCI-60 one-dose screen, 48 h (100 = growth as untreated, 0 = no growth, -100 = all killed); conditions: 10 µM
This is part of a sample that, as a whole, favours compounds with a hit. Of some 83,000 tested, about 20% had one in any assay.
Record satisfied whenever growth is at -70% or higher; record not satisfied when lower.

O=c1oc2ccc(-c3ccc(F)cc3F)cc2c(=O)n1-c1ccc(F)cc1 : satisfied
Cn1cc(-c2cc(N)n3nc(-c4c[nH]c5ccc(Br)cc45)cc3n2)c2cccnc21 : not satisfied
COC1CC(Cn2cc(COc3ccc4ccc(=O)oc4c3)nn2)C(OCc2ccccc2)C(OCc2ccccc2)C1OCc1ccccc1 (stereo not drawn) : satisfied
CNC(=O)c1cccc(N2CCc3c2ccc(NC(=O)Nc2ccc(N4CCN(C)CC4)c(C(F)(F)F)c2)c3F)c1 : not satisfied
C=C1CCC2C3(C)COC(c4cccc(F)c4)OC3CCC2(C)C1CC(O)C1=CCOC1=O (stereo not drawn) : satisfied
CC(=O)NNc1ccc2nnc(-c3ccc(Br)cc3)n2n1 : satisfied

Is growth at least -70%? Consider O=C(c1ccc(Cl)cc1)C1[C@H](c2ccc(Br)cc2)[C@@H](c2ccccc2)NC12C(=O)Nc1ccc(Br)cc12 (stereo partly drawn)
not satisfied

Is growth at least -70%? Consider O=C(c1ccc(-n2c(=O)[nH]c3ccccc3c2=O)cc1)N1CCOCC1
satisfied

Is growth at least -70%? Consider CN1CCN(c2ccc(Nc3nc(N4CCN(S(=O)(=O)c5ccc(Cl)cc5)CC4)c4sccc4n3)cc2)CC1
not satisfied

Is growth at least -70%? Consider COc1cc2oc(-c3cccc(C(=O)Nc4ccc(Cl)cc4)c3)cc(=O)c2c(OCCNC(=O)CNC(=O)OC(C)(C)C)c1OC
satisfied

Is growth at least -70%? Consider COc1ccc(N2N=C(c3ccc4c(c3)OCCO4)CC2c2cccc(NC(=O)CCCNS(=O)(=O)c3ccc(F)cc3)c2)cc1 (stereo not drawn)
satisfied

Is growth at least -70%? Consider CCN(CC)CCOc1ccc(C(=C(C)c2ccccc2)c2ccc(OCCN(CC)CC)cc2)cc1
not satisfied

Is growth at least -70%? Consider Cc1ccc(C(=O)Nc2ccc(-n3c(C)nc4c(cnn4-c4ccccc4)c3=O)cc2)cc1
satisfied

Is growth at least -70%? Consider O=C(Cn1cc(CSc2nnc3oc4ccccc4n23)nn1)Nc1ccc(Br)cc1
satisfied

Is growth at least -70%? Consider CCN1CCN(c2ccc(NC(=O)Nc3ccc4c(c3F)CCN4c3ccnc(C(=O)NC)c3)cc2C(F)(F)F)CC1
not satisfied

Is growth at least -70%? Consider CCCS(=O)(=O)c1oc(-c2ccc(F)cc2)nc1S(=O)(=O)c1ccc(F)cc1
not satisfied

* * *

test system: HCT-15 colon; assay: NCI-60 one-dose screen, 48 h; settings: 10 µM
Compounds without any hit were thinned out: in the full panel of roughly 83,000, 20% have a hit. Calls of active or inactive are those of the source. How the source made its calls: active means growth percent below 10; inactive means the rest.
Form entry, call: pick from active, inactive

A selection of reference data follows.
CCCSc1nc(NC2CC2)c(C#N)c(-c2ccc(OC)cc2)n1 : inactive
CN(C)c1ccc(/C=C/c2nc3ccccc3c(=O)n2CC(=O)Nc2ccccc2)cc1 : inactive

What did this assay record as the result for O=C(CNc1nc(-c2ccccc2)cs1)Nc1ccc([N+](=O)[O-])cc1 ?
active

What did this assay record as the result for COc1ccc(C(C)=C(c2ccc(OCCCN(C)C)cc2)c2ccc(OCCCN(C)C)cc2)cc1 ?
active
